# protocol-notes: qHTS for Inhibitors of human tyrosyl-DNA phosphodiesterase 1 (TDP1): qHTS in cells in presence of CPT; further: nearly all actives have a fitted effect of over 55% in size
# run-conditions: chicken DT40 Tdp1-/-;hTDP1 cells + 20 nM CPT, ATP luminescence, 48 h; series mostly up to 46.2 µM
The whole screen tested about 420,000 compounds, of which about 50,000 (12%) were called active. Roughly 26% stayed inconclusive and do not appear here. The call rests on the fitted dose curve; in most records, active means well fitted inhibition curve with a large enough effect; inconclusive means small, poorly fitted or top-dose-only effect; inactive means flat fitted curve, though single readings scatter. The sample as a whole holds a higher share of actives than the screen did.
Respond with a class label; see active, inactive

Would you please look over these solved cases?
COc1ccc(NC(=O)Cn2c(=O)n(Cc3ccc(C(=O)NCc4ccccc4Cl)cc3)c(=O)c3ccccc32)cc1 :: inactive
COc1ccccc1CNC(=O)CCCn1c(=O)c2ccccc2n(CC(=O)Nc2ccc(C)cc2Cl)c1=O :: active
CCC(=O)c1ccc(OCC(=O)OCC(=O)N2CCc3ccccc3C2)cc1 :: inactive
CCCCc1ccc(NS(=O)(=O)c2cccc(C(=O)N3CCCN(C)CC3)c2)cc1 :: active
Cc1ccccc1NC(=O)Cn1c(=O)n(CCCCC(=O)NCc2ccccc2Cl)c(=O)c2ccccc21 :: inactive

In: Could you kindly confirm the outcome this assay logged for CC(=O)N1CCN(C(=O)c2cccc(S(=O)(=O)Nc3ccc(C)cc3)c2)CC1 ?
Out: inactive

In: // param item: COc1ccccc1CNC(=O)CCCCn1c(=O)c2ccccc2n(CC(=O)Nc2cc(Cl)ccc2C)c1=O ; yields the recorded call
Out: active

In: Recorded test outcome, item COc1ccccc1CNC(=O)CCn1c(=O)sc2ccccc21
Out: inactive

In: What did the test return for CCCCn1c(=O)c2oc3ccccc3c2n(CC(=O)Nc2ccccc2OC)c1=O ?
Out: inactive
